assay: Toxicokinetics, 14-day intranasal study in rats (Study 700041); assay type: in vivo; details: male, Sprague Dawley, rat, plasma, inhaled or intranasal, 75 mg/kg/day, Day 14, Male, read-out: AUCINF_obs

- COMPOUND STRING: "COc1ccc2[nH]cc(CCN(C)C)c2c1"
  AUC(0-inf): "392 ng·h/mL"

###

assay: Toxicokinetics, 14-day intranasal study in rats (Study 700041); format: in vivo; conditions: both sexes, Sprague Dawley, rat, plasma, inhaled or intranasal, 75 mg/kg, rats, 14-day intranasal study, 5, 20, 75 mg/kg; read-out: apparent t1/2

- COMPOUND: "COc1ccc2[nH]cc(CCN(C)C)c2c1 [5MeODMT, 5-methoxy-N,N-dimethyltryptamine]"
  half-life: "6.8 to 9.4 min"

Cited source: patent US11518742B2
